target: Amyloid-beta precursor protein (Homo sapiens) (UniProt P05067); test: Inhibition of amyloid beta (1 to 42) (unknown origin) self aggregation at 25 uM after 24 hrs by ThT-based fluorometric method relative to control
Sequence (P05067 whole entry): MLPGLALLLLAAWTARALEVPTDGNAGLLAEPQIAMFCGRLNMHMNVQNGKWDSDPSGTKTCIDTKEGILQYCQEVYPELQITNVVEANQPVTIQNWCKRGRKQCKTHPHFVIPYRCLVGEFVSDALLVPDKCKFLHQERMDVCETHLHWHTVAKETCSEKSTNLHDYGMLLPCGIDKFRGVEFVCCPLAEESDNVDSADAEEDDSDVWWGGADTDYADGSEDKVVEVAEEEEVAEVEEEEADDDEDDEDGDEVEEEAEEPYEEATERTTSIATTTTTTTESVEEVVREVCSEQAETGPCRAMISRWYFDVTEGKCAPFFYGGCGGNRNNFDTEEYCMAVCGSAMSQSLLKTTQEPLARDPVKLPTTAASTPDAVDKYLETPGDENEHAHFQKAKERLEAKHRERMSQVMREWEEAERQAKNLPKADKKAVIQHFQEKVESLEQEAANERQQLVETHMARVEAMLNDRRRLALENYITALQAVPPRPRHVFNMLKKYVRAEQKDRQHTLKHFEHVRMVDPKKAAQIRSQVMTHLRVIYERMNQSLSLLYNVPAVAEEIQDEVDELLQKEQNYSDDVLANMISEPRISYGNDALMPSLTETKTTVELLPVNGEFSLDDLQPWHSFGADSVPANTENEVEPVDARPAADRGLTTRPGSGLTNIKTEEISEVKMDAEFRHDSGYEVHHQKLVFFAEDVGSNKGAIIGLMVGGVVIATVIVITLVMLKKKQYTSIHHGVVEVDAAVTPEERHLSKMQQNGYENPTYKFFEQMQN
Entry flag: true (1) if inhibition reaches 30%; false (0) if it does not.

SAMPLE_SMILES	CLASS
CCN(CCCNC(=O)COc1ccc(-c2cc(=O)c3c(OC)c(OC)c(OC)cc3o2)cc1)Cc1ccccc1	false (0)
CCN(CCNC(=O)COc1ccc(-c2cc(=O)c3c(OC)c(OC)c(OC)cc3o2)cc1)Cc1ccccc1	true (1)
CCN(CCCNC(=O)COc1ccc(-c2cc(=O)c3c(O)c(OC)c(OC)cc3o2)cc1)Cc1ccccc1OC	true (1)
